# reported growth inhibition; entries follow
Test: NCI Yeast Anticancer Drug Screen. Data for the mlh1 rad18 strain (AID 175)
Conditions: S. cerevisiae mlh1 rad18 strain growth inhibition; at 5.0 µM (retest, dose inferred, filed as 0.5); stronger effect = higher value
This is part of a sample that, as a whole, favours compounds with a hit. Of some 79,000 tested, about 15% had one in any assay.
Your answer should be a plain number; it is taken to be in %.

I'd like to know its growth inhibition. The compound in question is CCC/C(Cl)=N\OC(=O)Nc1ccc(Br)cc1
61

I'd like to know its growth inhibition. The compound in question is CC[C@@]1(O)C(=O)OCc2c1cc1n(c2=O)Cc2cc3c(N)cccc3nc2-1
-6

I'd like to know its growth inhibition. The compound in question is Oc1c(Br)cc(Br)cc1C1CCCCC1
44

====

Assay: NCI Yeast Anticancer Drug Screen. Data for the CLN2oe strain (AID 163);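 also: 0% = growth of vehicle-only control cultures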
Details: S. cerevisiae CLN2oe strain, at 33.0 µM, stronger effect = higher value
Compounds without any hit were thinned out: in the full panel of roughly 79,000, 15% have a hit.
# reported growth inhibition; entries follow
Your answer should be a plain number; it is taken to be in %.

Examples with their reported growth inhibition follow.
MOLECULE | VALUE
CCc1ccc(NS(=O)(=O)c2ccccc2)c([N+](=O)[O-])c1 | 17
CCCCCCCCCCCCCCCCCCNC | -4
O=C(NCCCCCCCN1CCCCCCC1)C(C1CCCCC1)C1CCCCC1 | 97
Fc1ccc(NC(=S)SCc2ccc3c(c2)OCO3)cc1F | 99
NC(=S)N/N=C\c1nccc2ccccc12 | 96
O=C(O)c1cccc(-c2c3ccc(=O)cc-3oc3cc(O)ccc23)c1 | 61
Cc1ccc2[nH]c3c(C)c4cc[n+](C)cc4c(C)c3c2c1 | 63
Nc1ncncc1C(C1=C(O)COC1=O)C1=C(O)COC1=O | -8

Proceed to the following item.
I'd like to know its growth inhibition. The molecule in question is COc1cc(C2C3=C(COC3=O)Oc3cc4c(cc32)OCO4)ccc1O (stereo not drawn)
-2

====

Test: NCI Yeast Anticancer Drug Screen. Data for the mgt1 strain (AID 153)
Conditions: S. cerevisiae mgt1 mutant growth inhibition; at 1.2 µM; stronger effect = higher value
About 79,000 compounds went through this panel and 15% of them were active in at least one assay; those are over-represented in the sample as a whole.
VALUE_KIND: growth inhibition (%)
Your answer should be a plain number; it is taken to be in %.

Examples with their reported growth inhibition follow.
MOLECULE | growth inhibition, %
O=C1C2C=CC1C1C(=O)OC(=O)C21 (stereo unspecified) | -29
COc1ccccc1N=NC(C(=O)c1ccccc1)C(=O)c1ccccc1 | -29
COc1ccc(-c2cn(-c3ccc(I)cc3)c3ncnc(N)c23)cc1 | -6
CCCCCCCCCCCCCC[N+](C)(CC(=O)[O-])Cc1ccccc1 (stereo unspecified) | 2
Cc1c(C2=C(Br)C(=O)N(C)C2=O)c(=O)n(C)c(=O)n1C | -1
CSc1nc(=S)[nH]c2c1c(C)nn2-c1ccccc1 | -19
NNc1c(F)c(F)cc(F)c1F | -17
O=C1C=CC(=O)c2c(O)c(Nc3ccc(OC(F)(F)F)cc3)c(Cl)c(O)c21 | 9

I'd like to know its growth inhibition. The molecule in question is O=c1ssc2ncccc12
-1

I'd like to know its growth inhibition. The molecule in question is N/C(=N\OC(=O)NC(Cl)=C(Cl)Cl)c1cc(C(F)(F)F)cc(C(F)(F)F)c1
-23

I'd like to know its growth inhibition. The molecule in question is CCC#CCCCOC(=O)c1cc([N+](=O)[O-])cc([N+](=O)[O-])c1
-5
